Known Bliss excess of a selection of compounds
tested on: NEC8 (Other Solid Carcinomas); assay: Bliss excess, mean over the matrix (fraction); higher = more synergy;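 further: after 72 h of two-drug dosing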
Lab note: jot down the number only; don't add units.

Completed entries (count: 5):
Cc1cc2ncnn2cc1Nc1ncc2c(n1)n(C1CCOCC1)c(=O)n2C [AZD7648] + CCN(CCO)CCCOc1ccc2c(Nc3cc(CC(=O)Nc4cccc(F)c4)[nH]n3)ncnc2c1 [AZD2811] (first compound max 10 µM, 7x7, partner max 1 µM) ... -0.0082
C[C@@H](c1ccc2nccn2c1)n1nnc2ncc(-c3cnn(C)c3)nc21 [Savolitinib] + CC1(C)CCC(CN2CCN(c3ccc(C(=O)NS(=O)(=O)c4ccc(NCC5CCOCC5)c([N+](=O)[O-])c4)c(Oc4cnc5[nH]ccc5c4)c3)CC2)=C(c2ccc(Cl)cc2)C1 [Venetoclax] (first compound max 1 µM, 7x7, partner max 1 µM) ... -0.0236
Cc1c2c(nn1C)CSCc1cc(n(C)n1)CSc1cc(c3ccccc3c1)OCCCc1c(C(=O)O)n(C)c3c-2c(Cl)ccc13 [AZD5991] + C=CCn1c(=O)c2cnc(Nc3ccc(N4CCN(C)CC4)cc3)nc2n1-c1cccc(C(C)(C)O)n1 [AZD1775] (first compound max 1 µM, partner max 1 µM) ... -0.0089
COc1nnc2ccc(N3CCC(c4ccc(OCCN5CCN(C)C(=O)[C@H]5C)cc4)CC3)nn12 [AZD5153] + CN(CC[C@H](CSC1=CC=CC=C1)NC2=C(C=C(C=C2)S(=O)(=O)NC(=O)C3=CC=C(C=C3)N4CCC(CC4)[C@H](C5=CC=CC=C5C6=CC=C(C=C6)Cl)O)S(=O)(=O)C(F)(F)F)CCO [AZD4320] (first compound max 1 µM, 7x7, partner max 1 µM) ... 0.0236
CCN(CCO)CCCOc1ccc2c(Nc3cc(CC(=O)Nc4cccc(F)c4)[nH]n3)ncnc2c1 [AZD2811] + C[C@@H]1COCCN1C2=NC(=NC(=C2)C3(CC3)[S@](=N)(=O)C)C4=C5C=CNC5=NC=C4 [AZD6738] (first compound max 1 µM, 7x7, partner max 10 µM) ... 0.0487

Query string: GET /values?readout=Bliss excess&item= CN(C)CCCOc1ccc(-c2ccc3ncc4c(c3c2)n(C2CCOCC2)c(=O)n4C)cn1 [AZD0156] + C=CCn1c(=O)c2cnc(Nc3ccc(N4CCN(C)CC4)cc3)nc2n1-c1cccc(C(C)(C)O)n1 [AZD1775] (first compound max 1 µM, partner max 1 µM)
Result string: 0.0183

---

Parameter Bliss excess: see the listing below.
test system: MLMA (Other Blood Carcinomas); assay: Bliss excess, mean over the matrix (fraction); higher = more synergy
Format: numeric value only, no unit, no commentary.

CCN(CCO)CCCOc1ccc2c(Nc3cc(CC(=O)Nc4cccc(F)c4)[nH]n3)ncnc2c1 [AZD2811] + C[C@@H]1COCCN1C2=NC(=NC(=C2)C3(CC3)[S@](=N)(=O)C)C4=C5C=CNC5=NC=C4 [AZD6738] (first compound max 1 µM, 7x7, partner max 10 µM) ... -0.0692

Next, consider the following compound.
Query string: What Bliss excess appears in the records for this compound with MLMA (Other Blood Carcinomas)? COc1nnc2ccc(N3CCC(c4ccc(OCCN5CCN(C)C(=O)[C@H]5C)cc4)CC3)nn12 [AZD5153] + CCN(CCO)CCCOc1ccc2c(Nc3cc(CC(=O)Nc4cccc(F)c4)[nH]n3)ncnc2c1 [AZD2811] (first compound max 1 µM, 7x7, partner max 1 µM)
Result string: -0.0434
